Tested on: epithelial carcinoma A431 cell line
EXPERIMENT_NOTES: MTT Cell Proliferation Assay, A431 cells
Assay type: cell-based
SETTINGS: Homo sapiens, A-431, A431 cells, first value of cell; read-out: MTT Assay IC50(A431/MDBK): A431
Description: The following example describes the MTT Cell Proliferation Assay. The MTT Cell Proliferation Assay is a colorimetric assay system that measures the reduction of the tetrazolium salt MTT (3-(4,5-dimethylthiazol-2-yl)-2,5-diphenyltetrazolium bromide) into insoluble formazan crystals, produced by the mitochondria of viable cells. […] The color can then be quantified by spectrophotometric means. […] Plates were read in a Tecan Sunrize UV plate reader, at 560 nm. […]
Counter-ions that a name gives are not always drawn.
Label condition met when IC50 < 20 µM; otherwise condition not met.

Data request: Does the reported IC50 of Cc1ccc2nc(Nc3nc(C)cc(-c4ccccc4)n3)nc(C)c2c1 [12689 + TFA] stay below 20 µM?
Data returned: condition not met

Data request: Please answer likewise for Cc1ccc2c(=O)nc(Nc3nc(C)cc(-c4ccccc4)n3)[nH]c2c1
Data returned: condition met

Data request: Please answer likewise for C=CCc1c(C)nc(Nc2nc(C)c3cccc(C)c3n2)[nH]c1=O [12607 + TFA]
Data returned: condition met

Data request: Please answer likewise for CCCc1c(C)nc(Nc2nc(C)c3cccc(OC)c3n2)[nH]c1=O [11773 + TFA]
Data returned: condition not met

Data request: Please answer likewise for CCCc1c(-c2ccccc2)nc(Nc2nc(C)c3ccccc3n2)[nH]c1=O
Data returned: condition met

Data request: Please answer likewise for Cc1ccc2nc(Nc3nc(C)c(CCC(C)C)c(=O)[nH]3)nc(C)c2c1 [12666 + TFA]
Data returned: condition met

Entry source: patent US20140179681A1
